Test system: Neuregulin-1 EGF-like domain
measurement-protocol: binders of neuregulin-1 EGF-like domain, primary screen, biochemical, small-molecule microarray, 635 nm fluorescence (AID 1081);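 also: binding of the protein to compounds printed on small-molecule microarray slides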
protocol-conditions: small-molecule microarray binding, higher = more signal
observation-type: composite z-score
Give bare numbers.

Answered examples (2):
- COc1ccc(C(O)C2C=CC3C(=O)NC(=O)C3N2Nc2ccccn2)cc1 (stereo not given): 0.844
- CCC(CC)C(O)C1C=CC2C(=O)N(C)C(=O)C2N1Nc1ccccc1 (stereo not given): 0.816

For each entry beneath this line, provide reported composite z-score.
1. CCCCC(=C=CC[C@@H](O)c1ccccc1OCCO)CCO
2. COC(=O)c1c(CC[C@@H](CO)NC(=O)N2CCC[C@H]2Cn2cc(-c3ccccn3)nn2)oc(C(C)=O)c1C(=O)OC
3. C=CCNC(=O)[C@H]1[C@@H]2C(=O)O[C@@H](c3ccccc3)[C@@H](c3ccccc3)N2[C@@H](c2ccccc2OCCO)[C@]12C(=O)Nc1ccc(C#CC3=CCCCC3)cc12
4. C[N+](C)(C)CCCC[C@@H]1NC(=O)[C@@H]2C[C@H](C(=O)NCCCCCN)[C@H](c3cccc(OCCO)c3)N2C1=O

*A*
0.479
0.808
1.09
1.08

For each entry beneath this line, provide reported composite z-score.
1. O=C1C2C=CC(C(O)c3c(F)cccc3Cl)N(Nc3ccccc3)C2C(=O)N1c1ccccc1 (stereo not given)
2. CC(C)c1ccc(NN2C(C(O)c3cc(C(F)(F)F)cc(C(F)(F)F)c3)C=CC3C(=O)N(c4ccccc4)C(=O)C32)cc1 (stereo not given)

*A*
1. 1.25
2. 1.28

For each entry beneath this line, provide reported composite z-score.
1. COC(=O)[C@@]1(Cc2ccc(OC)cc2)[C@H]2c3cc(C(=O)N(C)C)n(CCN4CNCC4=O)c3C[C@H]2CN1C(=O)c1ccccc1
2. CCCC=C(CCC)[C@@H](NS(=O)(=O)c1cccs1)c1ccc(C(=O)OC)cc1

*A*
1.3
1.18

====

measurement-protocol: compound binding in COS7 lysate, probe aLAP1, primary screen, cell lysate, small-molecule microarray (AID 1124);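 also: lysate comes from COS7 cells expressing LAP1 and is applied at 0.3 µg/mL; score merges spot fluorescence near 667 nm with signal-to-noise over triplicate slides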
protocol-conditions: probe aLAP1, fluorescence, higher = more signal
observation-type: composite z-score
Numbers only.

- CCCCc1cn(C[C@H](Cc2ccccc2)NC(=O)N[C@H](CO)CCc2oc(C(C)=O)c(C(=O)OC)c2C(=O)OC)nn1: 0.0969
- O=C1O[C@H](c2ccccc2)[C@H](c2ccccc2)N2[C@H]1[C@@H](C(=O)N1CCN(c3ncccn3)CC1)[C@]1(C(=O)Nc3ccc(C#CC4=CCCCC4)cc31)[C@H]2c1ccc(O)cc1: 0.853
- COc1ccc([Si](C)(C)[C@@H]2[C@@H](CC(=O)N3Cc4ccccc4C[C@H]3CO)O[C@]3(C(=O)N(C)c4c(Br)cc(C)cc43)[C@H]2C)cc1: 0.172

For each entry beneath this line, provide reported composite z-score.
1. C#CCN(Cc1ccccc1Br)C(/C=C/c1ccccc1)CO (stereo unspecified)
2. COc1ccc([C@H]2OC[C@@H]3CC4(CC=CC4)C(=O)N32)cc1
3. CCN(CC)c1ccc(N2CC=CC34O[C@@H]5/C=C\CCCOC(=O)C5[C@H]3C(=O)N(CCO)[C@@H]4C2=O)cc1 (stereo partly specified)
4. CC(C)c1ccc(NN2C(C(O)c3cc(C(F)(F)F)cc(C(F)(F)F)c3)C=CC3C(=O)N(c4ccccc4)C(=O)C32)cc1 (stereo unspecified)
5. COCCOC(=O)N1C(=O)[C@@]2(c3cc(C#CC4=CCCCC4)ccc31)[C@H](C(=O)N1CCc3cc(OC)c(OC)cc3C1)[C@H]1C(=O)O[C@H](c3ccccc3)[C@H](c3ccccc3)N1[C@@H]2c1ccc(OCCO)cc1
6. COCCCNC(=O)[C@@]1(Cc2ccccc2)N=C(c2ccc(OCCCO)cc2)O[C@H]1c1ccccc1

*A*
-0.146
-0.129
0.485
0.152
0.378
-0.0127
